target: IRAK4 (Homo sapiens, UniProt Q9NWZ3); assay: 2-hour 10 μM ATP Biochemical Assay (MesoScale Detection format; IRAK4 phosphorylation of biotin labeled IRAK1 activation loop peptide); conditions: read-out: IRAK4 Biochemical Assay (10 μM ATP, 2 h) IC50, 0.1 nM IRAK4
Sequence (Q9NWZ3 whole entry): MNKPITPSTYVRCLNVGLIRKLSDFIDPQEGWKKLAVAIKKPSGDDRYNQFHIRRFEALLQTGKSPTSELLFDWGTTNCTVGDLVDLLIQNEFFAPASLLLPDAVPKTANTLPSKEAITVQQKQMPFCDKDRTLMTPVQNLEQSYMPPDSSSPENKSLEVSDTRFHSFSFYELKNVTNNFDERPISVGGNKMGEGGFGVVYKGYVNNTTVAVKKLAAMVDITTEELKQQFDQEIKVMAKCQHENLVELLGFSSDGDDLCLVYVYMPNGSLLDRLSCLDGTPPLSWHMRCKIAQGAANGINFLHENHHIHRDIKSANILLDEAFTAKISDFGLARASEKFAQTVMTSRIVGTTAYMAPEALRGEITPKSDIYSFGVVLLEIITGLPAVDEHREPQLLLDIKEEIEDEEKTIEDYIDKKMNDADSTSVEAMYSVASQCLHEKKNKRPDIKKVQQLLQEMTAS
Quick reference: IC50 of the listed items.
Please respond with the number in nM and leave the unit unwritten.

COc1cccc(NC(=O)c2cn3cc(C[C@@H]4CCOC4)nc3cc2OC)n1: 3

// below: IC50 requested for another molecule
Please state recorded IC50 (tested on IRAK4 (Homo sapiens, UniProt Q9NWZ3)) of COc1cccc(NC(=O)c2cn3cc(C[C@H]4CCOC4)nc3cc2OC)n1
3
